Reference source for all entries: PubChem BioAssay (NCI)

# Tested on: HS 578T breast
# measurement_description: NCI-60 one-dose screen, 48 h
# experimental_conditions: 10 µM unless noted
About 83,000 compounds went through this panel and 20% of them were active in at least one assay; those are over-represented in the sample as a whole. Active and inactive are the calls of the source. Rule for the calls: active = growth percent below 10; inactive = the rest.
Lab note: assign the record to one of 1 (active), 0 (inactive)

1. N#Cc1c(NC(=O)c2ccccc2)sc2c1CCC(=O)C2    0
2. CC(=O)N(N=Nc1ccccc1)c1cccc2ccccc12    0
3. Cc1cc(Cl)ccc1NC(=O)c1cc2ccccc2cc1O    1

Input line: Returns: the outcome recorded for OB(O)c1cccc(-c2nc3ccc4[nH]ncc4c3c3c2CCCC3)c1 in this assay.
Output line: 1

Input line: Returns: the outcome recorded for CCN(CC)c1ccc(/C=C/C(=O)c2ccc(Nc3nc(Nc4ccccc4)nc(Nc4ccccc4)n3)cc2)cc1 in this assay.
Output line: 0

Input line: Returns: the outcome recorded for N=C(N)c1ccc(-c2ccc(-c3cc(Cl)cc(Cl)c3)o2)o1 in this assay.
Output line: 0

* * *

# Tested on: RXF 393 renal
# measurement_description: NCI-60 one-dose screen, 48 h (100 = growth as untreated, 0 = no growth, -100 = all killed)
# experimental_conditions: 10 µM unless noted
This is part of a sample that, as a whole, favours compounds with a hit. Of some 83,000 tested, about 20% had one in any assay.
measurement_type: growth (%)
Use % as the unit, but write only the number.

1) c1ccc(CNc2c3ccccc3nc3ccccc23)cc1    41.9

Input line: Identify the reported growth for the following entry. COc1ccc(/C=N/NC(=O)CCN2c3ccccc3Sc3ccccc32)cc1
Output line: 66.6

Input line: Identify the reported growth for the following entry. O=C(CSc1nnc2n1S(=O)(=O)c1ccccc1N2c1ccccc1)Nc1nc2ccc(F)cc2s1
Output line: 87.1

Input line: Identify the reported growth for the following entry. O=C1NCCC12CCN(c1c(Cl)cncc1-c1ccc(O)cc1)CC2
Output line: 87.9

Input line: Identify the reported growth for the following entry. CN[C@]12CC3(C=CC(=O)C=C3)O[C@@]1(Cc1ccc(OC)cc1)N(C)C(=O)N2
Output line: 43.7

* * *

# System: TK-10 renal
# measurement_description: NCI-60 one-dose screen, 48 h (100 = growth as untreated, 0 = no growth, -100 = all killed)
# experimental_conditions: 10 µM unless noted
Compounds without any hit were thinned out: in the full panel of roughly 83,000, 20% have a hit. The source made the active and inactive calls. The calls were made as follows: active = growth percent below 10; inactive = the rest.
measurement_type: growth

Solved entries (count: 5):
1) COc1cc(/C=C/C(=O)c2cccc(Nc3nc(Nc4ccccc4)nc(Nc4ccccc4)n3)c2)cc(OC)c1OC    66.3% (inactive)
2) O=C(/C=C(/C=C/c1cccc2[nH]ccc12)OB(F)F)/C=C/c1cccc2[nH]ccc12    -37.9% (active)
3) COC(=O)c1cc(-c2ccc(S(C)(=O)=O)cc2)[nH]c1N/N=C/c1c(Cl)cccc1Cl    19.2% (inactive)
4) CO/N=C(/C)c1ccc(NC(=O)CSc2nnc(-c3ccncc3)n2-c2ccccc2)cc1    -15.3% (active)
5) CS(=O)(=O)Nc1cc(-c2ccc3ncnc(Nc4ccc5c(cnn5Cc5ccccn5)c4)c3c2)cnc1Cl    65.5% (inactive)

Input line: Identify the reported growth for the following entry. CCc1nc2c(=O)[nH]cnc2o1
Output line: 108% (inactive)

Input line: Identify the reported growth for the following entry. OCCNCCCOc1ccc2ncnc(Nc3ccc(Oc4cccc(C(F)(F)F)c4)c(Cl)c3)c2c1
Output line: 49% (inactive)

Input line: Identify the reported growth for the following entry. C=CCn1c(SCC(=O)Nc2ccc(C(=O)/C=C/c3cc4cc(OC)ccc4nc3Cl)cc2)nnc1-c1ccc(Br)cc1
Output line: 93.5% (inactive)

Input line: Identify the reported growth for the following entry. O=C(Cn1c(-c2ccc([N+](=O)[O-])cc2)nc2ccccc21)NNC(=O)c1cccnc1
Output line: 126% (inactive)

* * *

# Tested on: PC-3 prostate
# measurement_description: NCI-60 one-dose screen, 48 h
# experimental_conditions: 10 µM unless noted
This is part of a sample that, as a whole, favours compounds with a hit. Of some 83,000 tested, about 20% had one in any assay. Active and inactive are the calls of the source. The calls were made as follows: active = growth percent below 10; inactive = the rest.
Lab note: assign the record to one of yes for active, no for inactive

1. O=C(Nc1ncc(Cc2ccc(Cl)c(C(F)(F)F)c2)s1)c1ccc2nnsc2c1    no
2. CCOC(=O)CSc1ncnc2c1c(-c1ccccc1)c(-c1ccccc1)n2-c1ccc(C)cc1    no

Input line: Returns: the outcome recorded for O=C(Nc1nn(-c2ccc(Cl)cc2Cl)nc1-c1ccccc1)c1ccccc1 in this assay.
Output line: no

Input line: Returns: the outcome recorded for CSc1nnc(-c2cnn3c2NC(c2ccccc2)C3)n1-c1ccc(C(F)(F)F)cc1 (configuration not stated) in this assay.
Output line: no

Input line: Returns: the outcome recorded for O=C(CSc1nc(-c2ccccc2)[nH]c1S(=O)(=O)c1ccccc1)NC1CC1 in this assay.
Output line: no

Input line: Returns: the outcome recorded for COCCNC(=O)c1ccc(-c2nc3ccc4[nH]ncc4c3c3c2CCCC3)cc1 in this assay.
Output line: no

Input line: Returns: the outcome recorded for Fc1ccc(Nc2nc3nonc3nc2Nc2ccc(I)cc2)cc1 in this assay.
Output line: yes

* * *

# Test system: MALME-3M melanoma
# measurement_description: NCI-60 one-dose screen, 48 h
# experimental_conditions: 10 µM unless noted
About 83,000 compounds went through this panel and 20% of them were active in at least one assay; those are over-represented in the sample as a whole. Activity calls are given as the source filed them. Rule for the calls: active = growth percent below 10; inactive = the rest.
Lab note: assign the record to one of class 1 (active), class 0 (inactive)

1) Cc1c(-c2nc3ccc(F)cc3c(=O)[nH]2)c2ccccc2n1C    class 0

Next up:
Input line: Returns: the outcome recorded for O=S(=O)(Nc1cc(Br)c(O)c2ccccc12)c1ccc(F)cc1 in this assay.
Output line: class 0

* * *

// values below are reported growth
# Test system: NCI-H23 lung
# measurement_description: NCI-60 one-dose screen, 48 h (100 = growth as untreated, 0 = no growth, -100 = all killed)
# experimental_conditions: 10 µM unless noted
The panel holds about 83,000 compounds, 20% with a hit somewhere; the sample as a whole holds those more often.
Use % as the unit, but write only the number.

Solved entries (count: 5):
1. COC(=O)c1n[nH]c2ccc3nc(-c4cn[nH]c4C(F)(F)F)c4c(c3c12)CCCC4    56
2. CC(=O)n1nc(C(=O)OC(C)C)c2cc(C)c(C)cc21    95.2
3. COc1cccc(NC(=O)Cn2cc(CN3CCN(c4ccnc5cc(Cl)ccc45)CC3)nn2)c1    95
4. Cc1cc(Cl)ccc1Nc1nc(C(F)(F)F)ccc1C(=O)N/N=C/c1ccc([N+](=O)[O-])cc1    -1.74
5. CN(C)CCCn1c2c(c3ncccc3c1=O)C(=O)c1ccccc1-2    54.8

Input line: Identify the reported growth for the following entry. O=C1N[C@@H]2NC(=[N+]3CCOCC3)N[C@@H]2N1
Output line: 103

Input line: Identify the reported growth for the following entry. Cc1ccc(-c2csc(NC(=O)CN3CCN(c4cc5c(cc4F)c(=O)c(C(=O)O)cn5C4CC4)CC3)n2)cc1
Output line: 4.26

Input line: Identify the reported growth for the following entry. O=C(CSc1nc(-c2ccccc2)[nH]c1S(=O)(=O)c1ccccc1)NC1CC1
Output line: 56.6

Input line: Identify the reported growth for the following entry. O=C(Nc1cccc([N+](=O)[O-])c1)c1cc2ccccc2cc1O
Output line: -0.282

Input line: Identify the reported growth for the following entry. COc1ccc2cc(C(=O)c3coc4ccc(O)cc34)ccc2c1
Output line: 96

Input line: Identify the reported growth for the following entry. Cc1cc2c(O)c(-c3cc(Cl)ccc3Cl)c3sc(=O)oc3c2cc1C
Output line: 44.2

Input line: Identify the reported growth for the following entry. COc1ccc(N2CCC(=O)NC2=S)cc1
Output line: 96.2

Input line: Identify the reported growth for the following entry. CNC(=O)c1cc(Oc2ccc3nc(NC(C)=O)sc3c2)ccn1
Output line: 103

Input line: Identify the reported growth for the following entry. COc1cc(/C=C\c2cc(/C=C\c3ccc(O)c(OC)c3)n(C(=O)COc3ccc(Cl)cc3Cl)n2)ccc1O
Output line: 14.1

Input line: Identify the reported growth for the following entry. COc1ccc(/C=N/NC(=O)CCN2c3ccccc3Sc3ccccc32)cc1
Output line: 75.6

Input line: Identify the reported growth for the following entry. COc1ccc(Cc2cc(-c3ccccc3)nn(Cc3ccccc3)c2=O)cc1OC
Output line: 39.4

Input line: Identify the reported growth for the following entry. CN(C)Cc1ccc(NC(=O)c2cncc(C#Cc3cnc(N)c4ncccc34)c2)cc1F
Output line: 78.1

* * *

# Tested on: HCT-15 colon
# measurement_description: NCI-60 one-dose screen, 48 h
# experimental_conditions: 10 µM unless noted
The panel holds about 83,000 compounds, 20% with a hit somewhere; the sample as a whole holds those more often. The source made the active and inactive calls. How the source made its calls: active means growth percent below 10; inactive means the rest.
Lab note: assign the record to one of active, inactive

1. N=C(N)c1ccc(-c2ccc(-c3cc(Cl)cc(Cl)c3)o2)o1    active
2. CN(CCn1sc(=O)n(Cc2ccccc2)c1=O)Cc1ccc2c(Cl)cc(Cl)c(O)c2n1    inactive
3. O=C1Nc2ccccc2/C1=C\c1nc(-c2ccccc2)n2ccccc12    inactive
4. O=C1/C(=C/c2ccc(Cl)c(Cl)c2)CN(C(=O)C(Cl)Cl)C/C1=C\c1ccc(Cl)c(Cl)c1    active
5. COc1ccc(-c2ccc3cnc4sc(-c5ccc(OC)cc5)nc4c3n2)cc1    inactive
6. Cc1nnc(-n2c(O)cc(=O)n(-c3ccccc3)c2=S)nc1/C=C/c1ccc(N(C)C)cc1    inactive
7. O=[N+]([O-])c1ccc(N/N=C(/C(=N/Nc2ccc([N+](=O)[O-])cc2)c2ccccc2)c2ccccc2)cc1    inactive
8. COc1ccc(-c2nc(SCC(C)C)nc(N/N=C\c3ccc(F)cc3)c2C#N)cc1    inactive

Next up:
Input line: Returns: the outcome recorded for COC(C(=O)[C@@H](O)[C@@H](C)O)[C@@H]1Cc2cc3cc(O[C@H]4C[C@@H](O[C@H]5C[C@@H](O)[C@H](O)C(C)O5)[C@H](O)C(C)O4)cc(O)c3c(O)c2C(=O)[C@H]1O[C@H]1C[C@@H](O[C@H]2C[C@@H](O[C@H]3C[C@@H](OC)[C@H](O)C(C)O3)[C@@H](O)C(C)O2)[C@H](O)C(C)O1 (some centres undefined) in this assay.
Output line: inactive
